B1: LCOR (parent)
chain: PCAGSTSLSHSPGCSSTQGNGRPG

Variants of: B1
Assay: protein stability index of a GFP-peptide fusion (GPS, HEK-293T) (PSI 1-6); higher = more stable;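 note: lentivirally expressed fusions sorted by FACS into six bins by GFP to DsRed ratio, PSI derived from sequencing read proportions per bin multiplied by bin number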
Conditions: c terminus: a fixed tail appended
Each record gets a class by protein stability index: lower range (below 3), middle range (3 to below 4), upper range (4 or more)

[[record]]
variant_name = "S7Q"
class_label = "middle range"

[[record]]
variant_name = "G4R"
class_label = "upper range"

[[record]]
variant_name = "S5I"
class_label = "lower range"

[[record]]
variant_name = "S9K"
class_label = "middle range"

[[record]]
variant_name = "C14V"
class_label = "upper range"

[[record]]
variant_name = "S11I"
class_label = "lower range"

[[record]]
variant_name = "A3M"
class_label = "middle range"

[[record]]
variant_name = "G24Y"
class_label = "lower range"

[[record]]
variant_name = "Q18K"
class_label = "middle range"

[[record]]
variant_name = "S15I"
class_label = "lower range"

[[record]]
variant_name = "S9E"
class_label = "middle range"

[[record]]
variant_name = "P23V"
class_label = "middle range"

[[record]]
variant_name = "C14G"
class_label = "upper range"

[[record]]
variant_name = "T17E"
class_label = "middle range"

[[record]]
variant_name = "G21I"
class_label = "middle range"

[[record]]
variant_name = "T17H"
class_label = "middle range"

[[record]]
variant_name = "G24M"
class_label = "lower range"

[[record]]
variant_name = "H10Y"
class_label = "upper range"

[[record]]
variant_name = "Q18G"
class_label = "middle range"

